From: patent US10159726B2

target: HLA-A*02 (Homo sapiens, UniProt P04439, D140Y/D185E/D98H/E176V/E277Q/G131W/G231S/I119V/I121R/I166T/I218V/N151K/N90K/P208A/P217A/Q86G/Q94H/R138H/R169H); assay: MHC binding assay, UV-ligand exchange with beta2m ELISA, HLA-A*02; details: peptide exchange yield
value-type: MHC class I binding score, Peptide exchange

[
  {
    "substance": "61 (HLPDFVKQL; listed as Homo sapiens) [compound 61]",
    "val": "++ (20%-49% = ++)"
  },
  {
    "substance": "328 (SVDSAPAAV; listed as Homo sapiens) [compound 328]",
    "val": "++ (20%-49% = ++)"
  },
  {
    "substance": "40 (SLLALPQDLQA; listed as Homo sapiens) [compound 40]",
    "val": "+++ (50%-75% = +++)"
  },
  {
    "substance": "59 (ALTKILAEL; listed as Homo sapiens) [compound 59]",
    "val": "+++ (50%-75% = +++)"
  }
]
